# TARGET UNDER TEST: NCT (N- and C-terminal truncated trehalase) (Spodoptera frugiperda, UniProt Q0ZIF5, C-[…]/DEL1-102/LAST/RESIDUES/[…])
# TEST PROTOCOL: glucose release assay, Lineweaver-Burk slope replots
# Assay type: biochemical
MEASUREMENT NAME: Ki

{"SMILES STRING": "N#C[C@H](O[C@@H]1O[C@H](CO[C@@H]2O[C@H](CO)[C@@H](O)[C@H](O)[C@H]2O)[C@@H](O)[C@H](O)[C@H]1O)c1ccccc1", "MEASUREMENT NAME": "Ki", "RESULT": "490 µM"}

###

# TARGET UNDER TEST: NCT (N- and C-terminal truncated trehalase) (Spodoptera frugiperda, UniProt Q0ZIF5, C-[…]/DEL1-102/LAST/RESIDUES/[…])
# TEST PROTOCOL: glucose release assay, Lineweaver-Burk slope replots
# Type: biochemical
pKi: −log10 of the molar value.

{"SMILES STRING": "OC[C@H]1NC[C@H](O)[C@@H](O)[C@@H]1O", "pKi": 6.10}

###

# TARGET UNDER TEST: WT (SfTre1, S. frugiperda midgut soluble trehalase, recombinant) (Spodoptera frugiperda)
# TEST PROTOCOL: glucose release assay, Lineweaver-Burk slope replots
# Assay type: biochemical
# STUDY CONDITIONS: read-out: Enzyme / WT; competitive; substrate trehalose 0.2-2 mM; pH 6.0, 30 °C
pKi: −log10 of the molar value.
MEASUREMENT NAME: pKi

{"COMPOUND": "COC1OC(CO)C(O)C(O)C1O (stereo not drawn) [methyl α-mannoside]", "MEASUREMENT NAME": "pKi", "READOUT NUMBER": 1.77}

###

# TARGET UNDER TEST: WT (SfTre1, S. frugiperda midgut soluble trehalase, recombinant) (Spodoptera frugiperda, UniProt Q0ZIF5)
# Sequence (Q0ZIF5 24-587): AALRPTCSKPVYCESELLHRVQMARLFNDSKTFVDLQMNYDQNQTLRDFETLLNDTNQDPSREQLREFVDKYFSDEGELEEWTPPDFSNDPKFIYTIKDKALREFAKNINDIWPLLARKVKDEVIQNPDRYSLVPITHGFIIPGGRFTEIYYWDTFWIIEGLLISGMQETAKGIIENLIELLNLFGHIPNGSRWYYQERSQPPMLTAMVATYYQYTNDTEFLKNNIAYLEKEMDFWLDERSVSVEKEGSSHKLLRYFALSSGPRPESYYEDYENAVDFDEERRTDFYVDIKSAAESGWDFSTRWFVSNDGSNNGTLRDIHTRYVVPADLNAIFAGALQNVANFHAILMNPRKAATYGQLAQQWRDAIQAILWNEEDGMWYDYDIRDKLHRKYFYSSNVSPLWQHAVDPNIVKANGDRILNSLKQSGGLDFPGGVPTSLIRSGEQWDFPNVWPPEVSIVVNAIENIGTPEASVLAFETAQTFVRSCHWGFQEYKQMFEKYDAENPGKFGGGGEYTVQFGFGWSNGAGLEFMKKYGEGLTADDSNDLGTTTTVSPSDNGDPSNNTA
# TEST PROTOCOL: glucose release assay, Lineweaver-Burk slope replots
# Format: biochemical
pKi: −log10 of the molar value.

{"SMILES STRING": "OC[C@H]1NC[C@H](O)[C@@H](O)[C@@H]1O", "pKi": 6.00}

###

# TARGET UNDER TEST: NT (N-terminal truncated trehalase) (Spodoptera frugiperda, UniProt Q0ZIF5)
# TEST PROTOCOL: glucose release assay, Lineweaver-Burk slope replots
# STUDY CONDITIONS: read-out: Enzyme / NT; competitive; substrate trehalose 0.2-2 mM; pH 6.0, 30 °C
pKi: −log10 of the molar value.

{"COMPOUND": "COC1OC(CO)C(O)C(O)C1O (stereo not drawn) [methyl α-mannoside]", "pKi": 1.77}
